# Assayed target: CIB1 and αIIb interaction (CIB1-GST : F-αIIb peptide) (Homo sapiens)
# Construct: made in house; host or cells: BL-21 plus RIL cells (E. coli)
# Sequence (Q99828 whole entry): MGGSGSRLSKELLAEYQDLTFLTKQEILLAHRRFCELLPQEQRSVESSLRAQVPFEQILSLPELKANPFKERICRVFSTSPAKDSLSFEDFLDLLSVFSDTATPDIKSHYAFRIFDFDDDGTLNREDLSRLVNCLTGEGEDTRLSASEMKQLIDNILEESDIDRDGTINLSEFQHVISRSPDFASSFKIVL
# Assay details: FP assay, 1536-well qHTS format (primary and confirmatory screen)
# Type: binding
# Test parameters: qHTS primary screen hits, Table S2; negative sign = inhibitory curve; several classes where COUNT > 1

{"Item smiles": "COc1cc(C=C2C(=O)Nc3ccccc32)cc(OC)c1O", "Curve Class": -2.2}
{"Item smiles": "O.O=C(O)[C@@H]1[C@H]2C[C@H]3c4[nH]c5ccccc5c4CCN3C[C@@H]2CC[C@@H]1O", "Curve Class": -2.4}
{"Item smiles": "Cn1cc(-c2[nH]c3cc(NC(=O)[C@H](N)C4CCCCC4)cc4c3c2C=NNC4=O)cn1", "Curve Class": -1.4}
{"Item smiles": "Oc1ccc(Cl)c2cccnc12", "Curve Class": -2.4}
{"Item smiles": "O=C(CN1C(=O)N/C(=C\\c2cn(-c3cccc(C(=O)O)c3)cn2)C1=O)Nc1ccc(Cl)cc1", "Curve Class": -2.4}
{"Item smiles": "O=C(O)C(F)(F)F.O=C1CCCC2=C1C1(CCCCC1)N=C(Nc1nc3ccccc3o1)N2", "Curve Class": -2.4}

* * *

Listed here are molecules together with their documented COUNTERSCREEN Efficacy (%).
# Assayed target: GST-CIB1 : F-scrambled peptide (Homo sapiens, UniProt Q99828)
# Construct: made in house; host or cells: BL-21 plus RIL cells (E. coli)
# Sequence (Q99828 whole entry): as above
# Assay details: FP scrambled-peptide counter screen, 1536-well format
# Format: binding
# Test parameters: scrambled-peptide counterscreen

{"Molecule": "O=C(O)c1cccc(CN2C(=O)/C(=C(\\c3ccccc3)c3ccc(Cl)cc3)c3ccccc32)c1", "Display unit": "%", "COUNTERSCREEN Efficacy (%)": -27}
{"Molecule": "Cl.NC(CO)(CO)CCc1ccc(Sc2cccc(OCc3ccccc3)c2)cc1Cl", "Display unit": "%", "COUNTERSCREEN Efficacy (%)": -28}
{"Molecule": "O=S(=O)(c1ccc2nc(Cl)c(Cl)nc2c1)N1CCN(S(=O)(=O)c2c(F)cccc2F)CC1", "Display unit": "%", "COUNTERSCREEN Efficacy (%)": -18}
{"Molecule": "O=C(Nc1nc(-c2ccccc2)cs1)c1ccncc1NS(=O)(=O)c1cccc2cccnc12.O=C(O)C(F)(F)F", "Display unit": "%", "COUNTERSCREEN Efficacy (%)": -33}
{"Molecule": "CCCC1CCN(C(=O)COC(=O)c2ccc(S(C)(=O)=O)c([N+](=O)[O-])c2)CC1", "Display unit": "%", "COUNTERSCREEN Efficacy (%)": -28}
{"Molecule": "COc1nn(CSP(=S)(OC)OC)c(=O)s1", "Display unit": "%", "COUNTERSCREEN Efficacy (%)": 0}
{"Molecule": "O=c1sc2ccccc2c(O)c1C1CC(c2ccc(-c3ccc(Br)cc3)cc2)Cc2ccccc21 (stereo not drawn)", "Display unit": "%", "COUNTERSCREEN Efficacy (%)": 118}
{"Molecule": "CC(C)NC(=S)N/N=C1\\C(=O)Nc2ccccc21.O=C(O)C(F)(F)F", "Display unit": "%", "COUNTERSCREEN Efficacy (%)": -45}
{"Molecule": "CC(C)(C)c1ccc(SC2=NS(=O)(=O)c3ccccc32)cc1", "Display unit": "%", "COUNTERSCREEN Efficacy (%)": 0}
{"Molecule": "CCc1oc2ccccc2c1C(=O)c1cc(I)c(O)c(I)c1", "Display unit": "%", "COUNTERSCREEN Efficacy (%)": 20}
{"Molecule": "COc1cccc(-c2csc(NC(=O)c3ccncc3NS(=O)(=O)c3ccc(C)cc3)n2)c1", "Display unit": "%", "COUNTERSCREEN Efficacy (%)": -41}
{"Molecule": "Cc1ccc(-c2cc(-c3nn(-c4nc(C(=O)O)cs4)c(CC4CC4)c3Cc3ccc(S(N)(=O)=O)c(F)c3)ccc2F)s1.Cl", "Display unit": "%", "COUNTERSCREEN Efficacy (%)": 32}
{"Molecule": "Cc1ccc(S(=O)(=O)Nc2cnccc2C(=O)Nc2nc(-c3ccc(Cl)cc3)cs2)cc1.O=C(O)C(F)(F)F", "Display unit": "%", "COUNTERSCREEN Efficacy (%)": 53}
{"Molecule": "O=C(Cc1ccc(Cl)c(Cl)c1)Nc1ccc(S(=O)(=O)Nc2ccon2)cc1.O=C(O)C(F)(F)F", "Display unit": "%", "COUNTERSCREEN Efficacy (%)": -10}
{"Molecule": "O=Cc1c(-c2ccccc2)no[n+]1[O-]", "Display unit": "%", "COUNTERSCREEN Efficacy (%)": -14}
{"Molecule": "Nc1c(Cc2ccc(S(N)(=O)=O)cc2)c(-c2cccc(-c3ccccc3)c2)nn1-c1nc(C(=O)O)cs1.O=C(O)C(F)(F)F", "Display unit": "%", "COUNTERSCREEN Efficacy (%)": 0}
{"Molecule": "N[C@@H](Cc1ccc(Oc2cc(I)c(O)c(I)c2)c(I)c1)C(=O)O", "Display unit": "%", "COUNTERSCREEN Efficacy (%)": -19}
{"Molecule": "COc1ccc2c(c1)C=C1Cn3c-2c(C2CCCCC2)c2ccc(cc23)C(=O)NS(=O)(=O)N(C)CCOCCN(C)C1=O", "Display unit": "%", "COUNTERSCREEN Efficacy (%)": 101}
{"Molecule": "O=C(Cc1ccc(Cl)c(Cl)c1)Nc1ccc(S(=O)(=O)Nc2cccc(C(=O)O)c2)cc1.O=C(O)C(F)(F)F", "Display unit": "%", "COUNTERSCREEN Efficacy (%)": 26}
{"Molecule": "C=CCNc1oc(-c2cccc3ccccc23)nc1C#N.O=C(O)C(F)(F)F", "Display unit": "%", "COUNTERSCREEN Efficacy (%)": -19}
{"Molecule": "O=C(O)C(F)(F)F.O=c1c2ccccc2nc2sc(Nc3cccc(N4CCN5CCCCC5C4)c3)nn12 (stereo not drawn)", "Display unit": "%", "COUNTERSCREEN Efficacy (%)": -28}
